Where do these numbers come from? They come from paper PMC4370873.

target: EMCV 3Dpol (Mengo virus, UniProt P12296)
Sequence (P12296 1834-2293): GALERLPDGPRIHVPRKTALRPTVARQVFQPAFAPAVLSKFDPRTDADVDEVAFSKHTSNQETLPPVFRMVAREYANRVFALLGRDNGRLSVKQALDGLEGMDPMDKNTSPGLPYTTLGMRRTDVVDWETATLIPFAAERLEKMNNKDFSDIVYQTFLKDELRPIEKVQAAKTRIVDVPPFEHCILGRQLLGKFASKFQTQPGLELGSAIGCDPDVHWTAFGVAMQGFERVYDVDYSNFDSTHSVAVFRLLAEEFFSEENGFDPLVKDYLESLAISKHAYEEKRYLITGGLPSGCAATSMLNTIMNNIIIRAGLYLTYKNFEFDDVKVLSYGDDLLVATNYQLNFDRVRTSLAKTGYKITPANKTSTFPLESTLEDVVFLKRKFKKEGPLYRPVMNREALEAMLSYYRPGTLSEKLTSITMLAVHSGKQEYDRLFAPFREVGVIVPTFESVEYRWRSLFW
reported endpoint: pKi
Remember the convention: pKi equals -log10 of concentration in molar.

Could you share which pKi value was measured for N#Cc1cc([N+](=O)[O-])ccc1Oc1ccc(Cl)cc1Oc1ccc([N+](=O)[O-])cc1C#N [GPC-N114] ?
5.89
